Origin of values: ChEMBL document CHEMBL1157539

Reported XC50 values are given for each entry in this list.
# Tested on: Plasmodium falciparum
# Test: GSK_TCMDC: Inhibition of Plasmodium falciparum 3D7 in whole erythrocytes, using parasite LDH activity as an index of growth.
# Type: functional, organism-based
# Particulars: Plasmodium falciparum, 3D7
Measured quantity: XC50 (µM)

COc1ccc(C(=O)CCC(=O)N(Cc2ccc(-c3ccc(CNCCc4ccc(S(C)(=O)=O)cc4)cn3)cc2)C2CCN(Cc3ccccc3)CC2)cc1F = 0.437
Cc1[nH]c(C)c(-c2ccc(-c3ccc(OC(F)(F)F)cc3)nc2)c(=O)c1Cl = 0.201
Cc1cc(N)c2cc(NC(=O)c3ccc4ccccc4c3)ccc2n1 = 0.254
Cc1cc(N(C)C2CCN(C)C2)nc(Nc2ccccc2Cl)n1 (centres undefined) = 0.754
COc1ccc(Cc2cnc3nc(N)nc(N)c3c2C)cc1OC = 0.00941
CC(C)(C)c1ccc(OC(=O)c2ccc(NC(=O)N[C@@H](Cc3ccc(O)cc3)C(=O)NC3CCN(Cc4ccc(O)cc4)C3)cc2)cc1 (some centres undefined) = 0.814
O=C(Nc1cccnc1)c1cc(-c2cccnc2)nc2ccc(Br)cc12 = 0.64
CSc1ccc(C=CC(=O)NC(=O)c2ccccc2O)cc1 = 0.289
CC(=O)Nc1ncc(C(=O)Nc2cccc(-c3cccc(-c4nc5cc(C(F)(F)F)ccc5[nH]4)c3)c2)s1 = 0.185
